ASSAY SYSTEM: Protein disulfide-isomerase A6 (Homo sapiens) (UniProt Q15084)
Sequence (Q15084 whole entry, looked up): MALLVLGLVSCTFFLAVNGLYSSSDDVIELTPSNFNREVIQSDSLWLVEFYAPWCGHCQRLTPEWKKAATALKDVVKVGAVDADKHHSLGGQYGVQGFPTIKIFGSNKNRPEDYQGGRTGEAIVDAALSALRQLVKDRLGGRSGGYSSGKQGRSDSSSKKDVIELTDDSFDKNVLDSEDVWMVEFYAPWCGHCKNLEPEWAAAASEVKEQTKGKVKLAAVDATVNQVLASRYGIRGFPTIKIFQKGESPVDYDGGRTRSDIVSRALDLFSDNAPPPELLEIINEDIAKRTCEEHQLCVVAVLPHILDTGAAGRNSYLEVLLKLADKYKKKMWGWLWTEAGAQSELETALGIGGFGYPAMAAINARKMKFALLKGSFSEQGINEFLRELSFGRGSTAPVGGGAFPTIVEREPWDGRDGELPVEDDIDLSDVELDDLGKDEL
METHOD: reduced insulin turbidity driven by ERp5 (PDIA6) – biochemical, absorbance 650 nm, cherry-picked samples, dose response (AID 720566);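 also: negative values mean less insulin aggregation so ERp5 inhibition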
CONDITION SUMMARY: Recombinant ERp5 insulin aggregation; series mostly up to 35 µM
Measured potencies and affinities stand elsewhere. Calls of active or inactive are those of the source.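 The calls were made as follows: active = in all runs, an absorbance decrease of 25% or more of the average positive control decrease; inconclusive = runs conflict, with both active and inactive results; inactive = all runs inactive, opposite-direction effects included.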
READOUT: outcome

Record excerpt, results attached:
C[C@@H]1CN([C@H](C)CO)C(=O)c2cccc(NC(=O)Nc3ccc4c(c3)OCO4)c2O[C@H]1CN(C)Cc1ccc(Oc2ccccc2)cc1: inactive
CCN(CC)S(=O)(=O)c1ccc2c(c1)N(CC(=O)NCCN1CCOCC1)C(=O)CO2: inactive
CCC(=O)N(C)C[C@H]1Oc2cc(-c3ccc(C#N)cc3)ccc2S(=O)(=O)N([C@@H](C)CO)C[C@@H]1C: inactive
CCC[C@@H](CN1CCC[C@H]1CN1C(N)=NC[C@H]1CC(C)C)N1C[C@@H]([C@H](C)CC)N(CCCC2CCCC2)C1=N: inactive
CN1CCN(C(=O)C[C@@H]2C[C@@H]3c4cc(NC(=O)C5CCOCC5)ccc4O[C@@H]3[C@H](CO)O2)CC1: inactive
C/C=C/c1ccc2c(c1)O[C@H](CN(C)Cc1cncnc1)[C@H](C)CN([C@@H](C)CO)S2(=O)=O: inactive

Query block: Any idea what outcome was measured for `COCC(=O)N(C)C[C@H]1Oc2cc(C#CC(C)(C)O)ccc2S(=O)(=O)N([C@H](C)CO)C[C@H]1C` ?
Result block: inactive

Query block: Any idea what outcome was measured for `O=C1[C@@H](c2ccccc2)CC[C@@H]2C=CC[C@H]3CCN1[C@@H]32` ?
Result block: inactive

Query block: Any idea what outcome was measured for `C[C@@H]1CN([C@H](C)CO)C(=O)c2cc(NC(=O)Nc3cccc4ccccc34)ccc2O[C@@H]1CN(C)C(=O)Nc1cccc2ccccc12` ?
Result block: inactive

Query block: Any idea what outcome was measured for `COc1ccccc1NS(=O)(=O)c1ccc(C(=O)N2CCN(c3ccccn3)CC2)cc1` ?
Result block: inactive

Query block: Any idea what outcome was measured for `CCCNC(=O)C[C@@H]1C[C@H]2c3cc(NC(=O)CC4CC4)ccc3O[C@H]2[C@H](CO)O1` ?
Result block: inactive

----------
ASSAY SYSTEM: Protein disulfide-isomerase A6 (Homo sapiens) (UniProt Q15084)
METHOD: reduced insulin turbidity driven by ERp5 (PDIA6) – biochemical, absorbance 650 nm, cherry-picked samples, dose response (AID 720566);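 also: negative values mean less insulin aggregation so ERp5 inhibition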
CONDITION SUMMARY: Recombinant ERp5 insulin aggregation; series mostly up to 35 µM
Results with a measured potency or affinity are listed apart. Active and inactive are the calls of the source.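 How the source made its calls: active means in all runs, an absorbance decrease of 25% or more of the average positive control decrease; inconclusive means runs conflict, with both active and inactive results; inactive means all runs inactive, opposite-direction effects included.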
READOUT: outcome

C/C=C/c1ccc2c(c1)O[C@@H](CN(C)S(C)(=O)=O)[C@H](C)CN([C@H](C)CO)S2(=O)=O: inactive
COc1ccc(S(=O)(=O)Nc2ccc3c(c2)C(=O)N([C@H](C)CO)C[C@H](C)[C@H](CN(C)C(=O)Nc2ccccc2)O3)cc1: inactive
O=C(C[C@H]1C[C@@H]2c3cc(NC(=O)CC4CC4)ccc3O[C@@H]2[C@@H](CO)O1)NCc1ccc(-c2ccccc2)cc1: inactive
COc1ccc(NC(=O)N(C)C[C@H]2Oc3ccc(NS(=O)(=O)c4ccccc4)cc3C(=O)N([C@@H](C)CO)C[C@@H]2C)cc1: inactive
CCC1(CC)NC(=O)N(CC(=O)OC(C)C(=O)Nc2ccc(NC(C)=O)cc2)C1=O (stereo not given): inactive
C[C@@H]1CN([C@@H](C)CO)C(=O)c2cc(C#CC3CCCCC3)cnc2O[C@@H]1CN(C)S(=O)(=O)c1ccccc1: inactive
C[C@H](CO)N1C[C@H](C)[C@@H](CN(C)S(=O)(=O)c2cn(C)cn2)Oc2ccc(NC(=O)c3ccncc3)cc2CC1=O: inactive
CN(C)C(=O)C[C@H]1C[C@H]2c3cc(NS(C)(=O)=O)ccc3O[C@H]2[C@@H](CO)O1: inactive
CC(=O)Nc1ccc2c(c1)C(=O)N(C)[C@H]1CC[C@@H](CC(=O)NCC3CC3)O[C@H]1CO2: inactive

Query block: Any idea what outcome was measured for `CN(C)C(=O)C[C@@H]1C[C@@H]2c3cc(NS(C)(=O)=O)ccc3O[C@@H]2[C@H](CO)O1` ?
Result block: inactive
